# Test system: Aspergillus niger
# Assay Text: Antifungal activity against Aspergillus niger after 7 days by serial dilution method
# Assay type: functional
MFC listing for selected molecules.

Worked cases, answers included:
Cc1ccc(C(=O)N/N=C/c2ccccc2Cl)cc1 :: 0.183 uM/ml
Cc1cccc(C(=O)N/N=C/c2ccccc2)c1 :: >0.21 uM/ml
CCCCCCCCCCCCCC(=O)N/N=C/c1ccccc1Cl :: >0.137 uM/ml
O=C(N/N=C/c1ccccc1Cl)c1cc([N+](=O)[O-])cc([N+](=O)[O-])c1 :: >0.13 uM/ml
CCCCCCCCCCCCCCCCCC(=O)N/N=C/c1ccccc1Cl :: 0.059 uM/ml

Challenge: So what does the record say about MFC for Cc1ccc(C(=O)N/N=C/c2ccccc2)cc1 ?
Response given: >0.21 uM/ml

Challenge: Would you mind doing CCCCCCCCCCCCCCCCCC(=O)N/N=C/c1ccccc1 as well?
Response given: 0.03 uM/ml

Challenge: Another molecule to check: CCCCCCCCCCCC(=O)N/N=C/c1ccccc1
Response given: >0.166 uM/ml

Challenge: Also Cc1cccc(C(=O)N/N=C/c2ccccc2Cl)c1 , if possible.
Response given: >0.183 uM/ml

Challenge: Then this molecule: COc1cc(OC)cc(C(=O)N/N=C/c2ccccc2Cl)c1
Response given: >0.157 uM/ml
